- Target system: Human immunodeficiency virus type 1 reverse transcriptase (Human immunodeficiency virus 1, UniProt Q72547)
Measured metric: IC50 (µM)
Express it in µM; write the number only.

Identify IC50 associated with the molecule CC1CN([C@H]2C[C@H](N=[N+]=[N-])[C@@H](COCP(=O)(O)OP(=O)(O)OP(=O)(O)O)O2)C(=O)NC1=O (stereo partly specified)
322

---

- Protocol details: Selectivity index is the ratio of CC50 to EC50
- Assay type: functional
Measured metric: SI
Keep it simple and answer with nothing but the number.

1. Cc1cn([C@H]2C[C@H](N=[N+]=[N-])[C@@H](CO)O2)c(=O)[nH]c1=O = 1600
2. Cc1cn([C@H]2C[C@H](N=[N+]=[N-])[C@@H](COCP(=O)(O)O)O2)c(=O)[nH]c1=O = 125

Identify SI associated with the molecule Cc1cn([C@H]2C[C@H](F)[C@@H](CO)O2)c(=O)[nH]c1=O
197

Identify SI associated with the molecule Cc1cn([C@H]2C[C@H](F)[C@@H](COCP(=O)(O)O)O2)c(=O)[nH]c1=O
19
